- ASSAYED SYSTEM: EPHB1 (UniProt P54762)
- Sequence (P54762 whole entry, looked up): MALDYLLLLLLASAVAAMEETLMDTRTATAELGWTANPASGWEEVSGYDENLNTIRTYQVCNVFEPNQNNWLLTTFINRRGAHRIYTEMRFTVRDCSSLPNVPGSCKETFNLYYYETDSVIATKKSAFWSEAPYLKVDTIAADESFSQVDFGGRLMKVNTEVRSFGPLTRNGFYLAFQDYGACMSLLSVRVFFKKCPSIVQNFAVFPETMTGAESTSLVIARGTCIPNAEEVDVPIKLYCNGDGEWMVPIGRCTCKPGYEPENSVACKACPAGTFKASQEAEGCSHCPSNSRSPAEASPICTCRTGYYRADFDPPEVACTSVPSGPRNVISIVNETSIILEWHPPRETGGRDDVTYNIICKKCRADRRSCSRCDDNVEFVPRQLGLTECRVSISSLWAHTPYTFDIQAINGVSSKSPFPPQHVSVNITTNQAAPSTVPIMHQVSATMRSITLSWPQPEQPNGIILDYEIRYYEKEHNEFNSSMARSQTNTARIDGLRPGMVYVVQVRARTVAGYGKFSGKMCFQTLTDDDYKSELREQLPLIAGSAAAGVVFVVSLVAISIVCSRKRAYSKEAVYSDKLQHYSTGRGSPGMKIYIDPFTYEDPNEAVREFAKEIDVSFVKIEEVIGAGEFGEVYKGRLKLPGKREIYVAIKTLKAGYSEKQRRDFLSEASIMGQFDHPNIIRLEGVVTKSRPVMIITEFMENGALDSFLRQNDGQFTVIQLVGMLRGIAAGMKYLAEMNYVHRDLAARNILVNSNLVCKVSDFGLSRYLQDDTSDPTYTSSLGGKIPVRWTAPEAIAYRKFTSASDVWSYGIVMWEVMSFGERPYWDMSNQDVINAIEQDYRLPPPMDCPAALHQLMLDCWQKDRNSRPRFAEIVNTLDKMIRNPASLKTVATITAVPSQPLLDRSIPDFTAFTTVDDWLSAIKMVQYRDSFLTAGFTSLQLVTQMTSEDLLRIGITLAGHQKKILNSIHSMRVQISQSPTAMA
- ASSAY INFO: phosphorylation enrichment, bacterial display (enrichment ratio); higher = better substrate or ligand; peptides without Tyr show the background;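 further: 11-residue human phosphosite peptides and single-mutation variants displayed on the E. coli surface, counted by deep sequencing, each peptide's frequency after selection divided by its frequency in the unselected input library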;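 further: frequency after pTyr selection over input frequency; kinase dosed for 20-30% of maximal phosphorylation in three min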
Classify as follows. Reported phosphorylation enrichment greater than or equal to 0.5: MET. Reported phosphorylation enrichment below: NOT MET.

HDKEFYSVHNK [MET_Y1235_Y1230H_YF] ... NOT MET

Req: Is the recorded value of phosphorylation enrichment equal to or greater than 0.5 for this sequence? INPIIYAFVVE [CCR5_Y297_G301V]
Resp: MET

Req: Is the recorded value of phosphorylation enrichment equal to or greater than 0.5 for this sequence? NSNSDYVDILP [SH2D1B_Y127_V130I]
Resp: MET

Req: Is the recorded value of phosphorylation enrichment equal to or greater than 0.5 for this sequence? RFWPRYVKVGS [NOG_Y172]
Resp: MET

Req: Is the recorded value of phosphorylation enrichment equal to or greater than 0.5 for this sequence? EKLQKYFRQNP [EHHADH_Y682_YF]
Resp: NOT MET

Req: Is the recorded value of phosphorylation enrichment equal to or greater than 0.5 for this sequence? ENRKYYMDLKE [PURA_Y156]
Resp: MET

====

- System: Fer (mouse)
- ASSAY INFO: phosphorylation enrichment, bacterial display (enrichment ratio); higher = better substrate or ligand; peptides without Tyr show the background
METRIC: phosphorylation enrichment
Field format: numeric only.

Examples with answers:
YEDALYTVLHR [UNC13D_Y61] ... 12.9
ASKEPYYVRCI [MYO1D_Y585] ... 0.557
NFATLHLKIFH [PDE6B_Y219_Y219H_YF] ... 0.565

Req: Suppose we examine the sequence FAKSVYWENTL [NUP107_Y296_YF] ; what phosphorylation enrichment value has been reported?
Resp: 0.418

Req: Suppose we examine the sequence GKSHIYFWTLE [EML2_Y230] ; what phosphorylation enrichment value has been reported?
Resp: 0.496

Req: Suppose we examine the sequence ENPAKYDDIKK [GAPDH_Y255_K251N] ; what phosphorylation enrichment value has been reported?
Resp: 0.453

Req: Suppose we examine the sequence GEDEPYSEPYA [APBA1_Y183] ; what phosphorylation enrichment value has been reported?
Resp: 0.618

Req: Suppose we examine the sequence FDNSVYQKTTE [LDLR_Y828_P826S] ; what phosphorylation enrichment value has been reported?
Resp: 0.374

Req: Suppose we examine the sequence LWPIWYRCHRP [MRGPRX1_Y130] ; what phosphorylation enrichment value has been reported?
Resp: 0.702

Req: Suppose we examine the sequence FHNSEYGELSE [FLT4_Y1337_Y1333H] ; what phosphorylation enrichment value has been reported?
Resp: 0.473

Req: Suppose we examine the sequence AKGMKYVASKK [MET_Y1194_L1195V] ; what phosphorylation enrichment value has been reported?
Resp: 0.322

====

- ASSAYED SYSTEM: EPHB1 (UniProt P54762)
- ASSAY INFO: phosphorylation enrichment, bacterial display (enrichment ratio); higher = better substrate or ligand; peptides without Tyr show the background
Grouping rule (phosphorylation enrichment): category 1 (below 0.5), category 2 (0.5 to below 0.9), category 3 (0.9 or more)

DRPASYLEKVR [KRT13_Y118_L115P] ... category 1
EKQLLYSENKT [FRK_Y132] ... category 2
MSRDIYSTDYY [NTRK1_Y676] ... category 3
MTRDIYRASYY [ALK_Y1278_A1274T] ... category 2
FQLPFYNMVPS [BMPR1A_Y458_YF] ... category 2

Req: Where would AESPEHVHMFT [FAM111A_Y511_Y511H_YF] land among the classes by reported phosphorylation enrichment?
Resp: category 2

Req: Where would MSRFIYSTDFF [NTRK1_Y676_D674Y_YF] land among the classes by reported phosphorylation enrichment?
Resp: category 3

Req: Where would DVVKDCAFVHM [RBM14_Y114_Y114C] land among the classes by reported phosphorylation enrichment?
Resp: category 2

====

- ASSAYED SYSTEM: Fes (UniProt P07332)
- Sequence (P07332 whole entry, looked up): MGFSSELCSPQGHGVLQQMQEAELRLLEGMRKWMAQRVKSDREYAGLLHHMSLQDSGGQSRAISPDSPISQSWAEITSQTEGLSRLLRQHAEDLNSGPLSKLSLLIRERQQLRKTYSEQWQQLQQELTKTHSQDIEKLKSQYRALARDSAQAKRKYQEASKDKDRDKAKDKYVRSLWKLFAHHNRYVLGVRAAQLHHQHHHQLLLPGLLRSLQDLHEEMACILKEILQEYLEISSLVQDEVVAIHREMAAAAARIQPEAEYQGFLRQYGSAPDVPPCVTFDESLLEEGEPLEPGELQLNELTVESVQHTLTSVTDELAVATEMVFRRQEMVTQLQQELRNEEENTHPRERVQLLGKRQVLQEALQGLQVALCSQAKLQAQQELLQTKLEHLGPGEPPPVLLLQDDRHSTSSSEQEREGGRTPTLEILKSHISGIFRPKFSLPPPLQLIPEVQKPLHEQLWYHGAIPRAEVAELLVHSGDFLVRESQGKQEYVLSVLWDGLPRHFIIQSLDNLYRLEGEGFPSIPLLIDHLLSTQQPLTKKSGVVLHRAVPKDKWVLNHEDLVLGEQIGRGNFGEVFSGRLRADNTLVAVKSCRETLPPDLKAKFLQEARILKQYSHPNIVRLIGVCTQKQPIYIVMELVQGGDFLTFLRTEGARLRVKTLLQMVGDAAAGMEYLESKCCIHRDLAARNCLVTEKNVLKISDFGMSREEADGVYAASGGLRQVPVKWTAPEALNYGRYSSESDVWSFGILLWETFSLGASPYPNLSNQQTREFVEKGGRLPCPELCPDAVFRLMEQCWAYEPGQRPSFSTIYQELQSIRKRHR
- ASSAY INFO: phosphorylation enrichment, bacterial display (enrichment ratio); higher = better substrate or ligand; peptides without Tyr show the background
Quick reference: phosphorylation enrichment of the listed items.
Field format: numeric only.

Examples with answers:
GGGMFYPLDLF ... 1.1
TVFENYVADIE [RHOA_Y42] ... 1.15
NTDETYSIDNE [TUBB2B_Y200_C201S] ... 1.35

Req: Suppose we examine the sequence EHTTLYSDNST [KANSL1_Y223_N225D] ; what phosphorylation enrichment value has been reported?
Resp: 0.801

Req: Suppose we examine the sequence LKKLEYLNLAL [LRRC6_Y70] ; what phosphorylation enrichment value has been reported?
Resp: 1.43

Req: Suppose we examine the sequence SSMIDYNTLEK [MYOC_Y479_P481T] ; what phosphorylation enrichment value has been reported?
Resp: 0.748

Req: Suppose we examine the sequence NVTRKYSRQIL [MAP3K2_Y463_T464S] ; what phosphorylation enrichment value has been reported?
Resp: 0.446

Req: Suppose we examine the sequence PLQNTYNYNVL [SLC4A1_Y553_K551N] ; what phosphorylation enrichment value has been reported?
Resp: 0.894

Req: Suppose we examine the sequence VSSSDYFSFVL [USP24_Y2138_Y2134S] ; what phosphorylation enrichment value has been reported?
Resp: 1.66

Req: Suppose we examine the sequence GEPLSHTRFSL [TFRC_Y20_Y20H] ; what phosphorylation enrichment value has been reported?
Resp: 0.828

Req: Suppose we examine the sequence DLVHPYVHKIL [SF3B1_Y570_R568H] ; what phosphorylation enrichment value has been reported?
Resp: 0.841

Req: Suppose we examine the sequence LLREWYLPDPY [SIX3_Y225_Q227P] ; what phosphorylation enrichment value has been reported?
Resp: 1.14

Req: Suppose we examine the sequence MCITQYERESQ [PRNP_Y218] ; what phosphorylation enrichment value has been reported?
Resp: 0.895

Req: Suppose we examine the sequence PESTLYRKFTT [NTRK1_Y701_I699T] ; what phosphorylation enrichment value has been reported?
Resp: 0.83

====

- ASSAYED SYSTEM: Fyn (UniProt P06241)
- Sequence (P06241 whole entry, looked up): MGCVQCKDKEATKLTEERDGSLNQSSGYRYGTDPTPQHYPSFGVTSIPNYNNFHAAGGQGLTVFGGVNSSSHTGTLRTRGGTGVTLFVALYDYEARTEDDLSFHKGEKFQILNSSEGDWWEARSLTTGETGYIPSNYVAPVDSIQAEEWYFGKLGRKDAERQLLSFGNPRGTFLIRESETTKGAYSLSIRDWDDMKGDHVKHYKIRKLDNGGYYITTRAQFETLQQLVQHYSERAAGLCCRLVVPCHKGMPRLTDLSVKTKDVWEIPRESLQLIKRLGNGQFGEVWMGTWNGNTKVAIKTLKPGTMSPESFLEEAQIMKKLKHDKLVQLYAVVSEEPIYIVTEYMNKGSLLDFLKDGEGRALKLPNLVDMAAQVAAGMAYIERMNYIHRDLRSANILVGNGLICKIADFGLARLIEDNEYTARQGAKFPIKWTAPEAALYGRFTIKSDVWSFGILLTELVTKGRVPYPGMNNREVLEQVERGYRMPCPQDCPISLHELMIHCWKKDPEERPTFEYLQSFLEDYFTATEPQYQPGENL
- ASSAY INFO: phosphorylation enrichment, bacterial display (enrichment ratio); higher = better substrate or ligand; peptides without Tyr show the background
Classify as follows. Reported phosphorylation enrichment greater than or equal to 0.6: true. Reported phosphorylation enrichment below: false.

Would you please look over these solved cases?
LMQAEYWHDPI [PPT1_Y185_V181M] ... true
PYYASYPPSPD [GDAP2_Y491_T489A] ... true
QKINNYLTVPA [SLC9A1_Y683] ... false
FGYPGYQSKHY [TIMP3_Y177] ... false
IRTIDYRYTVS [IDS_Y497_W502S] ... false
FRGFSYDDIPD [TMEM230_Y112_YF] ... false
NAGDYYDLYGG [PTPN11_Y63_T59A] ... true
YGGLRYGYGVL [KRTAP20-2_Y13] ... true
KVDKEYEVRVR [GHR_Y226] ... false
LKFAIYFEVRE [LAMA2_Y1258_A1261V_YF] ... false

Req: Is the recorded value of phosphorylation enrichment equal to or greater than 0.6 for this sequence? RPLVVYPWTQR [HBB_Y36_L32P]
Resp: false

Req: Is the recorded value of phosphorylation enrichment equal to or greater than 0.6 for this sequence? LREKVYASLEA [RXRA_Y397]
Resp: true

Req: Is the recorded value of phosphorylation enrichment equal to or greater than 0.6 for this sequence? AQMAMYFWEMG [TRPM4_Y577]
Resp: true

Req: Is the recorded value of phosphorylation enrichment equal to or greater than 0.6 for this sequence? LLRLAYLADIF [ZBED5_Y476]
Resp: false

====

- System: Fer (mouse)
- ASSAY INFO: phosphorylation enrichment, bacterial display (enrichment ratio); higher = better substrate or ligand; peptides without Tyr show the background
Grouping rule (phosphorylation enrichment): low band: < 0.5; middle band: ≥ 0.5 and < 0.7; high band: ≥ 0.7

FPSLPYSPVSS [CAMKK2_Y128_C123Y_YF] ... high band

Req: Where would TRNVRYLTLDI [AKR1C2_Y305_N300T] land among the classes by reported phosphorylation enrichment?
Resp: low band

Req: Where would SPFMLYQFLKQ [RPAP3_Y567_D564Y_YF] land among the classes by reported phosphorylation enrichment?
Resp: high band

Req: Where would ALAAPYVLYPS [CEFIP_Y1332_G1337S] land among the classes by reported phosphorylation enrichment?
Resp: middle band

Req: Where would ILGTFYETGSI [PAX2_Y73_R71T_YF] land among the classes by reported phosphorylation enrichment?
Resp: high band

Req: Where would YQCKHYACIRQ [TIMP3_Y182_S179C] land among the classes by reported phosphorylation enrichment?
Resp: low band

Req: Where would HKGASYVFRLS [PTPRD_Y891] land among the classes by reported phosphorylation enrichment?
Resp: low band

Req: Where would RPLVVYPWTQR [HBB_Y36_L32P] land among the classes by reported phosphorylation enrichment?
Resp: low band

Req: Where would RNDLDYMDSRR [GAA_Y407_W402R] land among the classes by reported phosphorylation enrichment?
Resp: low band

Req: Where would FDDIAYIRKNL [PIK3CA_Y1021_T1025N] land among the classes by reported phosphorylation enrichment?
Resp: low band

Req: Where would YRDALYKFMVD [PHEX_Y250] land among the classes by reported phosphorylation enrichment?
Resp: middle band

Req: Where would AMIADYMFWLG [SPATA16_Y290] land among the classes by reported phosphorylation enrichment?
Resp: high band

Req: Where would MCITQYERESQ [PRNP_Y218] land among the classes by reported phosphorylation enrichment?
Resp: low band

Req: Where would REESTYLPLTS [ICAM3_Y527] land among the classes by reported phosphorylation enrichment?
Resp: high band

Req: Where would IKGIRYLHHRG [GUCY2D_Y656] land among the classes by reported phosphorylation enrichment?
Resp: low band

Req: Where would KRIETYFSKNF [PLP1_Y50_L46R_YF] land among the classes by reported phosphorylation enrichment?
Resp: low band

Req: Where would VRSVDYVLFRS [FAM189B_Y361] land among the classes by reported phosphorylation enrichment?
Resp: middle band

Req: Where would KPPFSYNALIR [FOXG1_Y186_M191R] land among the classes by reported phosphorylation enrichment?
Resp: low band

Req: Where would FPLAEYTEVKT [ALDH1A3_Y497_A493P_YF] land among the classes by reported phosphorylation enrichment?
Resp: middle band
